Measured values drawn from the supplement of paper PMC10567573 for this set.

// reported protein stability index for each item listed
B1: CLCN6 (parent)
chain: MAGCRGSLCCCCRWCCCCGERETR

- Variants of: B1
- test.summary: protein stability index of a GFP-peptide fusion (GPS, HEK-293T) (PSI 1-6); higher = more stable;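 note: lentivirally expressed fusions sorted by FACS into six bins by GFP to DsRed ratio, PSI derived from sequencing read proportions per bin multiplied by bin number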
- condition.description: c terminus: a fixed tail appended

variant.annotation | protein stability index
G19Q | 1.29
C11D | 2.23
C17F | 2.29
C18Y | 1.84
G19A | 1.49
R24T | 2.71
R24K | 2.78
C11N | 2.15
L8E | 1.83
C18H | 2.06
C18A | 1.26
